- Tested on: foxtail, giant (giant foxtail, Setaria faberii)
- methodSummary: Test A preemergence, visual plant response rating
- Type: in vivo
- measurementParameters: 500 g ai/ha Preemergence; approx. 10 days
Parameter threshold = 80. Response is MET when Foxtail, Giant plant response rating (0 to 100 scale) meets or exceeds it, else NOT MET.

INPUT: Hi team, for CON=C(c1c(O)c(C)nn(C)c1=O)c1cccc2sccc12 [Compound 59] , is the recorded Foxtail, Giant plant response rating (0 to 100 scale) at or above 80?
OUTPUT: NOT MET

INPUT: Hi team, for "CON=C(c1c(O)c(C)nn(C)c1=O)c1cccc2ccoc12" , is the recorded Foxtail, Giant plant response rating (0 to 100 scale) at or above 80?
OUTPUT: NOT MET

INPUT: Hi team, for "CON=C(c1c(O)c(C)nn(C)c1=O)c1ccc(OC)c2ccccc12" , is the recorded Foxtail, Giant plant response rating (0 to 100 scale) at or above 80?
OUTPUT: MET

INPUT: Hi team, for "CO/N=C(/c1ccccc1F)c1c(O)c(C)nn(C)c1=O" , is the recorded Foxtail, Giant plant response rating (0 to 100 scale) at or above 80?
OUTPUT: NOT MET

INPUT: Hi team, for "CCO/N=C(\c1c(O)c(C)nn(C)c1=O)c1ccc(F)c2ccccc12" , is the recorded Foxtail, Giant plant response rating (0 to 100 scale) at or above 80?
OUTPUT: MET

INPUT: Hi team, for "CCc1cccc(C(=NOC)c2c(O)c(C)nn(C)c2=O)c1" , is the recorded Foxtail, Giant plant response rating (0 to 100 scale) at or above 80?
OUTPUT: NOT MET

INPUT: Hi team, for "CO/N=C(/c1cc(Cl)ccc1C(F)(F)F)c1c(O)c(C)nn(C)c1=O" , is the recorded Foxtail, Giant plant response rating (0 to 100 scale) at or above 80?
OUTPUT: MET

====

- Tested on: barnyardgrass (Echinochloa crus-galli)
- methodSummary: Test C postemergence, visual plant response rating
- Format: in vivo
- measurementParameters: Postemergence, 31 g ai/ha
- Text: […]
Parameter threshold = 30. Response is YES when Barnyardgrass plant response rating (0 to 100 scale) meets or exceeds it, else NO.

INPUT: Hi team, for CON=C(c1cc(F)cc(F)c1F)c1c(O)c(C)nn(C)c1=O [Compound 227] , is the recorded Barnyardgrass plant response rating (0 to 100 scale) at or above 30?
OUTPUT: NO

INPUT: Hi team, for "C#CCO/N=C(/c1c(O)c(C)nn(C)c1=O)c1cccc2cc(Cl)ccc12" , is the recorded Barnyardgrass plant response rating (0 to 100 scale) at or above 30?
OUTPUT: YES

INPUT: Hi team, for "C#CCO/N=C(\c1ccc(Cl)c(Cl)c1)c1c(O)c(C)nn(C)c1=O" , is the recorded Barnyardgrass plant response rating (0 to 100 scale) at or above 30?
OUTPUT: NO

INPUT: Hi team, for "C#CCO/N=C(\c1cc(Cl)cc(Cl)c1Cl)c1c(O)c(C)nn(C)c1=O" , is the recorded Barnyardgrass plant response rating (0 to 100 scale) at or above 30?
OUTPUT: YES

INPUT: Hi team, for "CON=C(c1ccc(F)c(Br)c1)c1c(O)c(C)nn(C)c1=O" , is the recorded Barnyardgrass plant response rating (0 to 100 scale) at or above 30?
OUTPUT: NO

INPUT: Hi team, for "CON=C(c1cc(Cl)cc(OC)c1)c1c(O)c(C)nn(C)c1=O" , is the recorded Barnyardgrass plant response rating (0 to 100 scale) at or above 30?
OUTPUT: YES

INPUT: Hi team, for "C#CCON=C(c1ccc(Cl)c(Cl)c1)c1c(O)c(C)nn(C)c1=O" , is the recorded Barnyardgrass plant response rating (0 to 100 scale) at or above 30?
OUTPUT: NO

INPUT: Hi team, for "C=CCO/N=C(/c1c(O)c(C)nn(C)c1=O)c1cccc2cc(Cl)ccc12" , is the recorded Barnyardgrass plant response rating (0 to 100 scale) at or above 30?
OUTPUT: YES

INPUT: Hi team, for "CO/N=C(/c1cccc(/C=C\Cl)c1)c1c(O)c(C)nn(C)c1=O" , is the recorded Barnyardgrass plant response rating (0 to 100 scale) at or above 30?
OUTPUT: NO

INPUT: Hi team, for "CON=C(c1cc(Cl)cc(Cl)c1Cl)c1c(O)c(C)nn(C)c1=O" , is the recorded Barnyardgrass plant response rating (0 to 100 scale) at or above 30?
OUTPUT: YES

INPUT: Hi team, for "CCO/N=C(\c1c(O)c(C)nn(C)c1=O)c1cccc2cc(Cl)ccc12" , is the recorded Barnyardgrass plant response rating (0 to 100 scale) at or above 30?
OUTPUT: YES

INPUT: Hi team, for "CO/N=C(\c1cccc(/C=C/Cl)c1)c1c(O)c(C)nn(C)c1=O" , is the recorded Barnyardgrass plant response rating (0 to 100 scale) at or above 30?
OUTPUT: NO

INPUT: Hi team, for "CO/N=C(\c1c(O)cnn(C)c1=O)c1ccc(F)c2ccccc12" , is the recorded Barnyardgrass plant response rating (0 to 100 scale) at or above 30?
OUTPUT: NO

INPUT: Hi team, for "Cc1nn(C)c(=O)c(C(=NOC(C)C)c2cc(Cl)cc(Cl)c2F)c1O" , is the recorded Barnyardgrass plant response rating (0 to 100 scale) at or above 30?
OUTPUT: YES

INPUT: Hi team, for "C#CCO/N=C(\c1c(O)c(Cl)nn(C)c1=O)c1ccc(F)c2ccccc12" , is the recorded Barnyardgrass plant response rating (0 to 100 scale) at or above 30?
OUTPUT: YES

INPUT: Hi team, for "CC(C)O/N=C(\c1c(O)c(Cl)nn(C)c1=O)c1cc(Br)cc2ccccc12" , is the recorded Barnyardgrass plant response rating (0 to 100 scale) at or above 30?
OUTPUT: YES

INPUT: Hi team, for "CO/N=C(/c1ccc(Cl)c(Cl)c1)c1c(O)c(C)nn(C)c1=O" , is the recorded Barnyardgrass plant response rating (0 to 100 scale) at or above 30?
OUTPUT: NO

INPUT: Hi team, for CON=C(c1cc(F)cc(F)c1F)c1c(O)c(C)nn(C)c1=O [Compound 226] , is the recorded Barnyardgrass plant response rating (0 to 100 scale) at or above 30?
OUTPUT: NO

INPUT: Hi team, for "CCO/N=C(\c1c(O)cnn(C)c1=O)c1ccc(F)c2ccccc12" , is the recorded Barnyardgrass plant response rating (0 to 100 scale) at or above 30?
OUTPUT: NO

INPUT: Hi team, for "CON=C(c1cc(Cl)cc(Cl)c1F)c1c(O)c(C)nn(C)c1=O" , is the recorded Barnyardgrass plant response rating (0 to 100 scale) at or above 30?
OUTPUT: YES

INPUT: Hi team, for "Cc1nn(C)c(=O)c(/C(=N/OCCO)c2cccc3cc(Cl)ccc23)c1O" , is the recorded Barnyardgrass plant response rating (0 to 100 scale) at or above 30?
OUTPUT: NO

INPUT: Hi team, for "CO/N=C(\c1cccc(/C=C\Cl)c1)c1c(O)c(C)nn(C)c1=O" , is the recorded Barnyardgrass plant response rating (0 to 100 scale) at or above 30?
OUTPUT: YES
